B1: MLH1 (parent)
chain: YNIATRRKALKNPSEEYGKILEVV

Variants of: B1
Test Protocol: protein stability index of a GFP-peptide fusion (GPS, HEK-293T) (PSI 1-6); higher = more stable;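 also: lentivirally expressed fusions sorted by FACS into six bins by GFP to DsRed ratio, PSI derived from sequencing read proportions per bin multiplied by bin number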
Experimental Context: c terminus: a fixed tail appended
Give protein stability index for every item shown.

protein stability index for `R6P` is 3.15

# protein stability index of `S14R` = 2.94

Lab note: `L21A` gave protein stability index of 3.69

variant `K19I` , protein stability index observed: 1.8

Lab note: measured protein stability index of `P13Y` was 2.59

Measured protein stability index, `I3Q` : 3.41

# variant `G18N` ; its protein stability index = 3.13

Sure, the documented protein stability index for `N12D` is 3.32

Noted for `Y17P` : its protein stability index reads 4.17

Documented protein stability index of `G18A` : 2.21

The measured protein stability index associated with `R6V` reads 2.1

Note to self: protein stability index recorded for `L21H` was 3.61

For this variant ( `E16Y` ), measured protein stability index is 1.88

Value of measured protein stability index for the entry `R7E` : 3.66

Item: `G18Y` | protein stability index: 2.34

The recorded protein stability index for `L10I` is 3.22

For `T5Y` the variant record lists protein stability index as 2

For `L10F` the variant record lists protein stability index as 3.02

According to the records, this variant `A9Y` displays protein stability index of 2.09

// `N2E` : protein stability index value = 3.12

Noted for `A4V` : its protein stability index reads 2.49

In plain terms, `E22C` has a documented protein stability index of 1.75

// sample `P13S` , its protein stability index was 3.05

protein stability index measured on `E15S` = 2.49

Lab note: measured protein stability index of `K19E` was 3.37

protein stability index in this record for `K11V` : 2.53

The variant `K8W` showed protein stability index equal to 1.94

Reported protein stability index of `K8F` : 2.27

Input `G18R` . Output protein stability index: 2.4

// sample `I20P` , its protein stability index was 3.3

Lab book: protein stability index of `N12A` noted as 2.55

The variant `Y17R` showed protein stability index equal to 3.57

// sample `R7V` , its protein stability index was 2.39

protein stability index reported for this variant `T5G` : 2.82

The recorded protein stability index for `L21S` is 3.76

So, `N12G` ? Its protein stability index was 2.71

Record `N2V` , field protein stability index: 1.87

Item: `I20T` | protein stability index: 3.62

// field: protein stability index; key: `K19H` ; value = 2.42

Measured protein stability index of `R7D` : 2.84

Value of protein stability index reported for the variant `L21T` is 3.91

Reported protein stability index of `P13F` : 1.96

Quick note, protein stability index for `E15C` landed at 2.17

Briefly, protein stability index measured for `A9Q` : 2.55

Entry under test: `V23F` . Its protein stability index was 2.1

// protein stability index value for `R7G` : 2.78

Memo: `L21G` , reported protein stability index: 3.52

For record `E15L` the listed protein stability index is 1.99

protein stability index in this record for `S14E` : 3.56

Documented protein stability index of `Y17V` : 3.16

The recorded protein stability index for entry `R6Q` equals 2.82

Summary for this variant, `G18D` : protein stability index is 3.15

Briefly, protein stability index measured for `E22T` : 2.19

Value of measured protein stability index for the entry `E16R` : 2.5

// protein stability index lookup, variant = `T5F` , result: 2.27

For record `E22D` the listed protein stability index is 3.33

# variant `L10A` ; its protein stability index = 3.09

Entry under test: `L21Y` . Its protein stability index was 2.46

Reported protein stability index of `I20H` : 3.59

response.value for `E22A` (field: protein stability index) = 2.59

Lookup result for `E15H` ; measured protein stability index: 2.43

For `I20N` the variant record lists protein stability index as 3.54

Please fill in: protein stability index reported for `Y17M` = 3.11

Given item `V23C` , the value recorded as its protein stability index is 3.03

Please fill in: protein stability index reported for `N2C` = 2.18

Notebook: `K19L` , protein stability index read as 1.63

// field: protein stability index; key: `Y1F` ; value = 2.43

So, `N12F` ? Its protein stability index was 1.97

Lab note: `L10H` gave protein stability index of 3

Sample `Y17S` ; protein stability index observed: 3.75

Recorded protein stability index (variant `E16K` ): 2.1

Form: variant = `K11W` ; protein stability index = 2.19

Sure, the documented protein stability index for `Y17H` is 3.53

Briefly, protein stability index measured for `R7T` : 2.95

Measured protein stability index of `A4H` : 2.89

The reported protein stability index of the variant `K11L` was 2.43

// recorded protein stability index for `L10G` : 2.99

Consider `L21W` . Its measured protein stability index is 2.34

Given item `V23S` , the value recorded as its protein stability index is 3.66

Measured protein stability index of `V23P` : 3.41

# protein stability index (variant: `Y17I` ) is 2.95

GET /value?item= `G18P` &field=protein stability index returns 3.03

Record `E15Q` . Reported protein stability index: 2.15

Data point: `L10M` ; protein stability index = 2.86

Memo: `R6K` , reported protein stability index: 2.99
